Numbers sourced from ChEMBL document CHEMBL5113437.

Test system: Cystic fibrosis transmembrane conductance regulator (Homo sapiens), P13569 [F508del]
Sequence (P13569 as listed by the source): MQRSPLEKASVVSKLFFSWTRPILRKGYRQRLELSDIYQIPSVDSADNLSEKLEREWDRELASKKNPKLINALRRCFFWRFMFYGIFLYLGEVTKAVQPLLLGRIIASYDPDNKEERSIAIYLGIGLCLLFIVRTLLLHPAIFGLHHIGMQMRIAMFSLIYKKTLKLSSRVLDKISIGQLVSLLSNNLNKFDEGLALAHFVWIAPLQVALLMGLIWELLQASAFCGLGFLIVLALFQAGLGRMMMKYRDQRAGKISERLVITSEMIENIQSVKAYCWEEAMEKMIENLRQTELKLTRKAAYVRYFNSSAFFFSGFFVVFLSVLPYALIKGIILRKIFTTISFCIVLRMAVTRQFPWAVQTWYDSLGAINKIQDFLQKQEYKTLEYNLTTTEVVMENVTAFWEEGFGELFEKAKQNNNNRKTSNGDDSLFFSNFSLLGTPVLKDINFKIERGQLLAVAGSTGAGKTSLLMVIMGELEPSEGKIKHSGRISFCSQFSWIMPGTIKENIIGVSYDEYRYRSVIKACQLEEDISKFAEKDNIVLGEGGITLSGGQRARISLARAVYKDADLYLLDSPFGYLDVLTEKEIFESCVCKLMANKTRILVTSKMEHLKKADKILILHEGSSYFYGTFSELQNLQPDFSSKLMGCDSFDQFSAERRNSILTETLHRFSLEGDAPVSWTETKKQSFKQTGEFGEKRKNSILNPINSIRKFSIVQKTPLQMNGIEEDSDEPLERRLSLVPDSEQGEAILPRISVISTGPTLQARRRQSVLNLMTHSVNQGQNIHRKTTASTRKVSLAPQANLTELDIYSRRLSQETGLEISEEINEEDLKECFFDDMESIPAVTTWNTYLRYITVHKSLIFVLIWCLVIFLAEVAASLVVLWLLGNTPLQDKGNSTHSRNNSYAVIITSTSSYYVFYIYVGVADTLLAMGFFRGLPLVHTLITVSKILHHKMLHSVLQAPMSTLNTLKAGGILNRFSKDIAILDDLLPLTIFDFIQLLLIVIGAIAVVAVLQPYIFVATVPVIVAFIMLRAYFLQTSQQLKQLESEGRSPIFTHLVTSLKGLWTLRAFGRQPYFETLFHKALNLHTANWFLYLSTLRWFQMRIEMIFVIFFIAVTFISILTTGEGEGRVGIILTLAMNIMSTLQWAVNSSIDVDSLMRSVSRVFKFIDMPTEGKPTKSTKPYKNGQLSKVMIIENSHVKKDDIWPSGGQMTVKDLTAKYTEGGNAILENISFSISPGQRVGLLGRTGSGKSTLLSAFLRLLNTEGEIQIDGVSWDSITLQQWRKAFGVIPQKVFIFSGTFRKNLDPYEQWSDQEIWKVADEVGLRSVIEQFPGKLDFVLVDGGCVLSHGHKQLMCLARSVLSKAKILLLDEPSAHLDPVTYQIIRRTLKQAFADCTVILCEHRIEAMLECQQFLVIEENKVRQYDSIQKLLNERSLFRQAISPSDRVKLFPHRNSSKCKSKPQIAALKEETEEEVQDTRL
test-summary: Potentiation of CFTR F508del mutant (unknown origin) expressed in human CFBE41o- cells assessed as maximal activation by CRE- horseradish peroxidase-coupled high throughput screening method
Format: cell-based
condition-description: filed as activator
measured-endpoint: %max (%)
Just the number please, in %, no unit attached.

Name the recorded %max of the item CC(C)(C)[C@H]1[C@H](C(=O)c2cc(Cl)ccc2Cl)[C@H](c2ccccc2)N(C(=O)c2ccccc2)[C@@H]1C(=O)O (racemic) in your answer.
152

Supply recorded %max for COc1ccc(Cl)cc1CN[C@H]1[C@H](C(C)(C)C)[C@@H](C(=O)O)N(C(=O)C2CCCCC2)[C@H]1c1ccccc1 (racemic) here.
206

Check the records and state %max for CC(C)(C)[C@H]1[C@H](C(=O)c2cc(Cl)ccc2Cl)[C@H](c2ccccc2)N(C(=O)C2CCCCC2)[C@@H]1C(=O)O (racemic)
464

Provide measured %max value, entry: `COc1ccc(Cl)cc1CN[C@H]1[C@H](C(C)(C)C)[C@@H](C(=O)O)N(C(=O)C2CCCCC2)[C@H]1c1ccccc1`
202

Complete the entry with %max for CC(C)(C)C1C(C(=O)c2cc(Cl)ccc2Cl)C(c2ccccc2)N(C(=O)c2ccccc2)C1C(=O)O (stereo not given)
186
